Measured growth, listed per entry for reference.
System: IGROV1 ovarian
Protocol Summary: NCI-60 one-dose screen, 48 h (100 = growth as untreated, 0 = no growth, -100 = all killed)
Test Conditions: 10 µM unless noted
Compounds without any hit were thinned out: in the full panel of roughly 83,000, 20% have a hit. Activity calls are given as the source filed them. The calls were made as follows: active = growth percent below 10; inactive = the rest.
Measurement Name: growth

                                   molecule  measurement_target            result
0      c1ccc(-c2[nH]c3ccccc3c2-c2ccccc2)cc1      IGROV1 ovarian   120% (inactive)
1  CC(=O)OC1Oc2cc(C)c(C)cc2-c2oc(=O)c(-c3ccc(F)cc3)cc21 (centres undefined)      IGROV1 ovarian  54.4% (inactive)
2  COc1cc(-c2csc(NC(=O)Nc3cccc(C(F)(F)F)c3)n2)cc(OC)c1OC      IGROV1 ovarian  59.6% (inactive)
3          CCOC(=O)C(=CNc1ccccc1Cl)C(=O)OCC      IGROV1 ovarian  91.1% (inactive)
4  COc1cc(-c2n/c(=C\c3c(O)[nH]c4cc(Cl)ccc34)cc3c2=Nc2ccccc2-3)cc(OC)c1OC      IGROV1 ovarian  25.2% (inactive)
5  Nc1nc(N)c2c(n1)NC(c1sc(Cl)nc1Cl)CC(c1ccccc1)=N2 (centres undefined)      IGROV1 ovarian  50.5% (inactive)
6  OC(c1cc2cc(Cl)ccc2c2cc(C(F)(F)F)ccc12)C1CCCCN1 (centres undefined)      IGROV1 ovarian   -67.4% (active)
7  COc1cc(OC)cc(-c2n/c(=C\c3c(O)[nH]c4ccc(Cl)cc34)cc3c2=Nc2ccccc2-3)c1      IGROV1 ovarian   -21.3% (active)
8  COc1cccc2nc(Nc3cccc(NC(=O)c4cc(N5CCOCC5)cc(C(F)(F)F)c4)c3)ccc12      IGROV1 ovarian  40.4% (inactive)
